Reported % Inhibition T5 nuclease values are given for each entry in this list.
# TARGET UNDER TEST: T5 nuclease (Escherichia phage T5)
# Construct: purchased NEB
# Sequence (P06229 whole entry): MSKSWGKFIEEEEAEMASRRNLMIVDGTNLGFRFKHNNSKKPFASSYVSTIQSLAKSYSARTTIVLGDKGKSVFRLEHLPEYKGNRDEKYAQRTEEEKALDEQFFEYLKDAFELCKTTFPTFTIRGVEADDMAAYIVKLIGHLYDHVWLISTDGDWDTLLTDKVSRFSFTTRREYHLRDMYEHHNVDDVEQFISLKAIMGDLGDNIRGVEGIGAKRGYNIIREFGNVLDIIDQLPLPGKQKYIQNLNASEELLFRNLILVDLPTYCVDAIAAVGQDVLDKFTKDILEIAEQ
# TEST PROTOCOL: T5 nuclease counter-screen (fluorescence nuclease assay)
# Type: biochemical
# Design: concentration or dose not given beside the values
# ASSAY SETUP: re-screening against T5 nuclease
Structures can show the parent of a compound that is named as a salt.

COMPOUND	VALUE UNITS	% Inhibition T5 nuclease
O=C1c2c(O)ccc(O)c2C(=O)c2c(NCCNCCO)ccc(NCCNCCO)c21 [Mitoxantrone dihydrochloride, reference compound]	%	100
Cc1cc(NCCCCCCCNc2cc(C)nc3cc(N)ccc23)c2ccc(N)cc2n1	%	56.5
COc1cc(-c2ccc(N=Nc3ccc4c(S(=O)(=O)[O-])cc(S(=O)(=O)[O-])c(N)c4c3O)c(OC)c2)ccc1N=Nc1ccc2c(S(=O)(=O)[O-])cc(S(=O)(=O)[O-])c(N)c2c1O.[Na+].[Na+].[Na+].[Na+] [Chicago Sky blue 6B, reference compound]	%	100
CC(=O)[O-].Cc1c2cc[n+](CCN3CCCCC3)cc2c(C)c2c1[nH]c1ccc(O)cc12	%	100
Cc1cc(N)c2ccccc2[n+]1CCCCCCCCCC[n+]1c(C)cc(N)c2ccccc21	%	88.9
[Mo]	%	96.1
CCN(CC)CCCC(C)Nc1nc(C)cc(Nc2ccc3nc(C)cc(N)c3c2)n1 (stereo not shown) [NSC23766, reference compound]	%	94.7
CCN(CC)CCCC(C)Nc1c2ccc(Cl)cc2nc2ccc(OC)cc12 (stereo not shown) [Quinacrine dihydrochloride, reference compound]	%	55.4
CO[C@H]1C[C@@H]2\C=C(C)/C=C/C=C\C(=O)N[C@H](c3ccccc3)C/C=C/CC[C@H](O)CC(=O)C2=C1O	%	72
NC(N)=NCCCS(=O)(=O)Nc1ccc(Nc2c3ccccc3nc3cc([N+](=O)[O-])ccc23)cc1	%	100
ClN=C1C=CC=CC1=NCl	%	97.9
Cl.O=C1c2cccc(NCCCNCCO)c2C(=O)c2cccc(NCCCNCCO)c21	%	74.5
O=C(Nc1ccc(C2=NCCN2)cc1)c1ccc(C(=O)Nc2ccc(C3=NCCN3)cc2)c(Cl)c1	%	100
CC[N+](C)(CC)CCC[n+]1c(-c2ccccc2)c2cc(N)ccc2c2ccc(N)cc21.[I-].[I-] [Propidium Iodide, reference compound]	%	100
O=C(Nc1ccc(C2=NCCN2)cc1)c1ccc(Cl)c(C(=O)Nc2ccc(C3=NCCN3)cc2)c1	%	100
COc1ccc2nc(C)cc(NCCCCCCCCCNc3cc(C)nc4ccc(OC)cc34)c2c1	%	93.7
CCCCC(CC)CNC(=N)NC(=N)NCCCCCCNC(=N)NC(=N)NCC(CC)CCCC (stereo not shown) [Alexidine dihydrochloride, reference compound]	%	100
Nc1ccc(Cn2ccc3c4c(N)nc(N)nc4ccc32)cc1	%	100
COc1cccc2c1C(=O)c1c(O)c3c(c(O)c1C2=O)C[C@@](O)(C(C)=O)C[C@@H]3O[C@H]1C[C@H](N)[C@H](O)[C@H](C)O1 [Daunorubicin hydrochloride, reference compound]	%	98.1
COc1ccc2c(C)nc(NC3=NC(C)(C)CC(C)=N3)nc2c1	%	77.3
Cc1cc(N)c2cc(NC(=O)/C=C/c3ccccc3Cl)ccc2n1	%	100
COc1cccc2c1C(=O)c1c(O)c3c(c(O)c1C2=O)C[C@@](O)(C(=O)CO)C[C@@H]3O[C@H]1C[C@H](N)[C@H](O)[C@H](C)O1 [Doxorubicin hydrochloride, reference compound]	%	100
CCN(CC)Cc1cc2[nH]c3c4ccc(Cl)cc4ncc3c2cc1OC	%	99.2
CN1CCN(c2ccc3nc(-c4c(N)c5c(F)cccc5[nH]c4=O)[nH]c3c2)CC1 [(Dovitinib) CHIR258, Dovitinib, reference compound]	%	60.2
COc1ccc2c(NCCCCCCNc3c4ccccc4nc4cc(OC)ccc34)c3ccccc3nc2c1	%	100
Cn1ccc(=Nc2ccc(NC(=O)c3ccc(N=c4ccn(C)c5ccc([N+](=O)[O-])cc45)cc3)cc2)cc1	%	100
COc1cccc2c1C(=O)c1c(O)c3c(c(O)c1C2=O)CC(O)(/C(C)=N/O)CC3OC1CC(N)C(O)C(C)O1 (stereo not shown)	%	97.9
Cc1cc2nc3ccc(N(C)C)cc3[s+]c2cc1N	%	83.9
c1ccc2c(NCCCCCCCCNc3c4ccccc4nc4ccccc34)c3ccccc3nc2c1	%	100
O=C(Nc1ccc(Nc2ccncc2)cc1)c1ccc(Nc2ccnc3ccc([N+](=O)[O-])cc23)cc1	%	100
Cc1cc2c(c3oc(C4(C)OC4C4OC4C)cc(=O)c13)C(=O)c1c(O)c(C3CC(C)(N(C)C)C(O)C(C)O3)cc(C3CC(N(C)C)C(O)C(C)O3)c1C2=O (stereo not shown)	%	100

###

% Inhibition yDna2 values for the compounds below.
# TARGET UNDER TEST: yDna2 (Saccharomyces cerevisiae)
# Construct: made in house
# Sequence (P38859 whole entry): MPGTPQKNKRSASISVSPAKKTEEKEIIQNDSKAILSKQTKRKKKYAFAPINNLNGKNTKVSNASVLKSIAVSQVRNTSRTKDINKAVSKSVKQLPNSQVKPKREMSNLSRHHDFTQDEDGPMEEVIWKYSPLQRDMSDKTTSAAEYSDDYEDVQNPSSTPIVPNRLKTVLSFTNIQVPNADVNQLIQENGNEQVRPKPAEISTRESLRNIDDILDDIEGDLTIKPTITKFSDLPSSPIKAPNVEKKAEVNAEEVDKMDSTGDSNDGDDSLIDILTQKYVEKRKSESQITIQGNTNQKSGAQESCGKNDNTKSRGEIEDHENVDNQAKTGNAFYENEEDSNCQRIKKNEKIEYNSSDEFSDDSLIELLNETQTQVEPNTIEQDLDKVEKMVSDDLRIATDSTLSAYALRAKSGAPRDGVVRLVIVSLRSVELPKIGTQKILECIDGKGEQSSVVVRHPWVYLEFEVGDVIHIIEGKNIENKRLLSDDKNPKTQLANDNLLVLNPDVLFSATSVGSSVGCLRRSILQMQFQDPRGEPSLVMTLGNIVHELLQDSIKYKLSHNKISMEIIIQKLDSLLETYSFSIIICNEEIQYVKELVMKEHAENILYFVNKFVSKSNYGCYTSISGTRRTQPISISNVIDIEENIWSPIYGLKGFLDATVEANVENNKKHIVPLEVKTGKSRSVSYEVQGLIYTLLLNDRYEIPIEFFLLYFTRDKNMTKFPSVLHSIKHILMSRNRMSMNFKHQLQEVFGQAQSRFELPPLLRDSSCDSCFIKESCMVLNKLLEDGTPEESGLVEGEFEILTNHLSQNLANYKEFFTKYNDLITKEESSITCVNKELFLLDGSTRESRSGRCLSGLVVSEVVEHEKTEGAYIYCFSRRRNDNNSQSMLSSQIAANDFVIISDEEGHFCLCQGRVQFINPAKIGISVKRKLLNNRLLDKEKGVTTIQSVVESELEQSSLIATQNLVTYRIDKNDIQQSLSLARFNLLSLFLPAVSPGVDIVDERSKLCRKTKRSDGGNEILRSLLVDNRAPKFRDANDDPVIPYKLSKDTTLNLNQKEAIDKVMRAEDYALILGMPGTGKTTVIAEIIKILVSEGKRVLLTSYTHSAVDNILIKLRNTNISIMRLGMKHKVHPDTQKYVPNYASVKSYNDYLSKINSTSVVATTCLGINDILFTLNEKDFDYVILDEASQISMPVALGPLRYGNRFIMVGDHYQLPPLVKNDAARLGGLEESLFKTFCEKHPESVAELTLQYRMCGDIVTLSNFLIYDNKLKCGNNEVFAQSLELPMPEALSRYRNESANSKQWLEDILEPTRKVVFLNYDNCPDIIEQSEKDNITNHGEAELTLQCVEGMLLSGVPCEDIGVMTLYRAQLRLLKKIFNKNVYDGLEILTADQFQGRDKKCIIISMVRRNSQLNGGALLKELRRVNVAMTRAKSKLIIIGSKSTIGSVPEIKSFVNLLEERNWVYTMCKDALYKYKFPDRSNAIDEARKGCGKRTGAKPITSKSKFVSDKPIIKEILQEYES
# TEST PROTOCOL: High-throughput fluorescence nuclease assay with yDna2 (triply labeled (dT)30 ssDNA)
# Assay type: biochemical, yeast
# ASSAY SETUP: screen at fixed inhibitor concentration (33.33 μM), 0.09 nM Dna2
OUTCOME MEASURE: % Inhibition yDna2 (%)

COMPOUND	OUTCOME MEASURE	ASSAY VALUE
O=C(Nc1ccc(Nc2ccncc2)cc1)c1ccc(Nc2ccnc3ccc([N+](=O)[O-])cc23)cc1	% Inhibition yDna2	76.5
CCN(CC)CCCC(C)Nc1nc(C)cc(Nc2ccc3nc(C)cc(N)c3c2)n1 (stereo not shown) [NSC23766, reference compound]	% Inhibition yDna2	100
CC[N+](C)(CC)CCC[n+]1c(-c2ccccc2)c2cc(N)ccc2c2ccc(N)cc21.[I-].[I-] [Propidium Iodide, reference compound]	% Inhibition yDna2	100
COc1ccc2nc(C)cc(NCCCCCCCCCNc3cc(C)nc4ccc(OC)cc34)c2c1	% Inhibition yDna2	90.3

###

Readings of IC50 for the listed compounds
# TARGET UNDER TEST: hDNA2 (Homo sapiens)
# Construct: made in house
# Sequence (P51530 1-1060): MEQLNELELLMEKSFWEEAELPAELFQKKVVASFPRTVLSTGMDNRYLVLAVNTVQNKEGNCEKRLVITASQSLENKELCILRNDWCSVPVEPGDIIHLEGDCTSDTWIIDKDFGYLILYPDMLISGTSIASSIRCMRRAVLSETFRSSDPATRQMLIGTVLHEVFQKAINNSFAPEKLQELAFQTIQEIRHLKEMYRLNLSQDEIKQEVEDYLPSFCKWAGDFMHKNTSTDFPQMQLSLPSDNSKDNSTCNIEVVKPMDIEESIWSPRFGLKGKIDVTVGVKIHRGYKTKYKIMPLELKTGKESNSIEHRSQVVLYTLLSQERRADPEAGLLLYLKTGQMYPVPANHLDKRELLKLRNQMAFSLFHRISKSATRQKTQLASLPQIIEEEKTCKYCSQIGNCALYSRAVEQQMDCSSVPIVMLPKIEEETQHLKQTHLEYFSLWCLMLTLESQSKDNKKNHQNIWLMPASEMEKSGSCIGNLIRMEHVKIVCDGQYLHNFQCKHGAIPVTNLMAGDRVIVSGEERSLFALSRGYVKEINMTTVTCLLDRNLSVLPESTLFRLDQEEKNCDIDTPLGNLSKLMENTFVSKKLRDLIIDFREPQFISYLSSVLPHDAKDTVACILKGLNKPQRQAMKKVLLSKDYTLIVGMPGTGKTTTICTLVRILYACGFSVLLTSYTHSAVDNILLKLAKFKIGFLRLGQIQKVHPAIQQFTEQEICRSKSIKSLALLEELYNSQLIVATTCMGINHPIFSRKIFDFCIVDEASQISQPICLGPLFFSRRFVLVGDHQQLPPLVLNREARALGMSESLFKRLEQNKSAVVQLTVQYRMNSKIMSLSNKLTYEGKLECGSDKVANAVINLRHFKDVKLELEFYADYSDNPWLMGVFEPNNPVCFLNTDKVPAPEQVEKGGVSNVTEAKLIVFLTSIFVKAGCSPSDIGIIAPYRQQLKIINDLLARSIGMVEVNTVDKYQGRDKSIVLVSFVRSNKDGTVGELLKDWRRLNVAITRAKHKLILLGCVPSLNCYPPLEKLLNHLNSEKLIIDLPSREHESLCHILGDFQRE
# TEST PROTOCOL: Fluorescence nuclease assay with hDNA2 (triply labeled ssDNA)
# Assay type: biochemical
# ASSAY SETUP: human DNA2 10 nM; substrate 0.1 μM; Figure 3c; read-out: IC50 (human DNA2), dose-response in vitro
OUTCOME MEASURE: IC50 (nM)

1. O=C1C(=O)c2cc([N+](=O)[O-])ccc2-c2ccccc21 3100
2. NC1=C(Br)C(=O)c2ncccc2C1=O 1490

###

Let's look at some compounds and their measured pIC50.
# TARGET UNDER TEST: yDna2 (Saccharomyces cerevisiae)
# Construct: made in house
# TEST PROTOCOL: High-throughput fluorescence nuclease assay with yDna2 (triply labeled (dT)30 ssDNA)
# Assay type: biochemical, yeast
# ASSAY SETUP: yeast Dna2 0.09 nM; substrate 0.1 μM; Figure 3c; read-out: IC50 (yeast Dna2), dose-response in vitro
pIC50: −log10 of the molar value.

COMPOUND	pIC50
NC1=C(Br)C(=O)c2ncccc2C1=O [NSC-105808, 6-amino-7-bromoquinoline-5,8-dione]	5.70
O=C1C(=O)c2cc([N+](=O)[O-])ccc2-c2ccccc21 [NSC-5195242, 2-nitrophenanthrene-9,10-dione]	5.41
